Cited source: ChEMBL document CHEMBL4414549

- test summary: Oral bioavailability in human in fed state at 560 mg administered daily
- Assay type: ADME, organism-based
- cond: in vivo
readout name: bioavailability (%)

compound	readout name	reading unit	recorded value
C=CC(=O)N1CCC[C@@H](n2nc(-c3ccc(Oc4ccccc4)cc3)c3c(N)ncnc32)C1 [IBRUTINIB]	bioavailability	%	8.4
